- assay system: CNGA1+CNGB1-ΔN (Bos taurus, UniProt Q00194+Q28181, DEL2-765)
- Sequence (Q00194 whole entry, stated change not applied): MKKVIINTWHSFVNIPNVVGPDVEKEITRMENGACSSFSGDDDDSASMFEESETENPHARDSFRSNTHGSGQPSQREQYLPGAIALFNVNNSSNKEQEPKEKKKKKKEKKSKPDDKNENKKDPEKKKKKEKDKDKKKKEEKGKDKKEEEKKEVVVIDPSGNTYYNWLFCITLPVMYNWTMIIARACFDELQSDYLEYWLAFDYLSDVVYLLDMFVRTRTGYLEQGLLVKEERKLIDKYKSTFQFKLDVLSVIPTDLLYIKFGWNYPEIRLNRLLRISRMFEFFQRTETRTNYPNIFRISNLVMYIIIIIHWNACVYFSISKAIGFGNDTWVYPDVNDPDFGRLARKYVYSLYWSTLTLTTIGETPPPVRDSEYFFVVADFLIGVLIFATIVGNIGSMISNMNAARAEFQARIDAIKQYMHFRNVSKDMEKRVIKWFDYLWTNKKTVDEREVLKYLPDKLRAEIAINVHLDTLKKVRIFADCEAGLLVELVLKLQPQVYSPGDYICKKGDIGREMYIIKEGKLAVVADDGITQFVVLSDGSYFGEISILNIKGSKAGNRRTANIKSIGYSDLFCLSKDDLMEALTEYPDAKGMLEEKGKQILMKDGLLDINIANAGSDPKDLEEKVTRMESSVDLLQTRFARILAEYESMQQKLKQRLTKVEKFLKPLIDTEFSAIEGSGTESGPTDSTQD
- Sequence (Q28181 766-1394, stated change not applied): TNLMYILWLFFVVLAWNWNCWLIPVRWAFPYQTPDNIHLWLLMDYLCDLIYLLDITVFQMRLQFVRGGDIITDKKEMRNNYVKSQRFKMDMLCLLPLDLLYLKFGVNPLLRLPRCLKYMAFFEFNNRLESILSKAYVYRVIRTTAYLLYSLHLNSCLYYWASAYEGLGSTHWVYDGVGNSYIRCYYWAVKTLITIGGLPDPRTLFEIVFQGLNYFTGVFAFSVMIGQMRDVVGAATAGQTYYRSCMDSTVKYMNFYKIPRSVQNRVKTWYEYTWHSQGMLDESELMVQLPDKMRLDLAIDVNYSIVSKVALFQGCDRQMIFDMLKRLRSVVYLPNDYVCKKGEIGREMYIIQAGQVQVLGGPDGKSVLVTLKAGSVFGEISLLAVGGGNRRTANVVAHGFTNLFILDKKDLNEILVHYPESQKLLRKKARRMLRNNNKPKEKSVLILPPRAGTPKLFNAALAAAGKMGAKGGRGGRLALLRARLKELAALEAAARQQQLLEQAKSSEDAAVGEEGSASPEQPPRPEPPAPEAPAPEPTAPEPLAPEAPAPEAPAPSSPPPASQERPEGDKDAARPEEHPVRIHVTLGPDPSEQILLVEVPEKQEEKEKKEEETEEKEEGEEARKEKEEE
- test name: inside-out patch clamp, block of cGMP-activated current
quantity: pIC50
Keep it numeric: pIC50 is minus log10 of the concentration in mol/L.

// field: pIC50; key: COc1ccc([C@H]2Sc3ccccc3N(CCN(C)C)C(=O)[C@H]2OC(C)=O)cc1 [L-cis-diltiazem] ; value = 5.85

====

- assay system: CNGA1+CNGB1 (heteromeric rod CNG channel) (Bos taurus, UniProt Q00194+Q28181)
- Sequence (Q00194 whole entry): as the sequence (Q00194 whole entry, stated change not applied) above
- Sequence (Q28181 whole entry): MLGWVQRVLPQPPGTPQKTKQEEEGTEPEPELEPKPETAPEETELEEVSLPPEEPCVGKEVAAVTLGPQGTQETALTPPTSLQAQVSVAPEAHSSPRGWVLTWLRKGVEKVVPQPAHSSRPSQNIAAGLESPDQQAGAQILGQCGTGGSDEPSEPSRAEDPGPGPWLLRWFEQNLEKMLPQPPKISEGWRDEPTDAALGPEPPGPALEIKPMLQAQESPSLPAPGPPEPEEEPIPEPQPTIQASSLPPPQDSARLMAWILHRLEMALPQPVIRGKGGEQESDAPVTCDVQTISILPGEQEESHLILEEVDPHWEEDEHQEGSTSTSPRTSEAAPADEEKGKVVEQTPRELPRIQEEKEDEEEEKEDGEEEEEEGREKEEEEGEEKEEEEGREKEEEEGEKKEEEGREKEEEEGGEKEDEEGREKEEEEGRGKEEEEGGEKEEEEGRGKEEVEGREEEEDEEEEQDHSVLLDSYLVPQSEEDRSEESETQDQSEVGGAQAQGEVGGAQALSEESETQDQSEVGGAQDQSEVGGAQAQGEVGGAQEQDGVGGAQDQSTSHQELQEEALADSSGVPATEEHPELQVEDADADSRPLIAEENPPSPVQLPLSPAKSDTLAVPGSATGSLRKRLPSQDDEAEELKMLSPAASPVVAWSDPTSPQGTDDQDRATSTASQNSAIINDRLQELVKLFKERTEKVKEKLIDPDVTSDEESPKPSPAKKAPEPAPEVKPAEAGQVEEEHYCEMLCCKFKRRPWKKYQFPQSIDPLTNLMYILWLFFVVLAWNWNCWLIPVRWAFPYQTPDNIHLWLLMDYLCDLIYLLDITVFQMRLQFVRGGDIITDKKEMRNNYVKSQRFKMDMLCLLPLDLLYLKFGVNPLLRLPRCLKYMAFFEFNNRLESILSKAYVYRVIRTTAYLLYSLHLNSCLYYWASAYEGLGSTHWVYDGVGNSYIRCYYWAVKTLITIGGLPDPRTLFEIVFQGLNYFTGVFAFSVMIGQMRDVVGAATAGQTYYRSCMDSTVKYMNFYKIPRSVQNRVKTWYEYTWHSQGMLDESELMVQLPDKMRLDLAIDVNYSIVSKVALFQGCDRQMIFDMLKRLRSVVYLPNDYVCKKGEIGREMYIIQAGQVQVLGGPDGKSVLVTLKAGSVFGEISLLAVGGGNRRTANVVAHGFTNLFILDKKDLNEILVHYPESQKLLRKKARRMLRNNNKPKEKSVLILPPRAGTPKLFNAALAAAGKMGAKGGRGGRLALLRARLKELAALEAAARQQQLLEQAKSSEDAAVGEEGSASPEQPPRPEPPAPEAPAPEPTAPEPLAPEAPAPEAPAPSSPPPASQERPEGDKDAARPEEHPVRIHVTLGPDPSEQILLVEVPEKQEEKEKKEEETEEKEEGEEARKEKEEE
- test name: inside-out patch clamp, block of cGMP-activated current
quantity: pIC50
Please report pIC50 as the negative decimal logarithm of the molar concentration, giving only the number.

The reported value for COc1ccc([C@H]2Sc3ccccc3N(CCN(C)C)C(=O)[C@H]2OC(C)=O)cc1 [L-cis-diltiazem] in terms of pIC50 is 5.61
